Where do the numbers come from? From paper PMC10165104.

target: Kv1.3 (mKv1.3) voltage-gated potassium channel (Mus musculus); assay: whole-cell voltage clamp of mKv1.[…] expressed in HEK293T cells
Sequence (P16390 whole entry): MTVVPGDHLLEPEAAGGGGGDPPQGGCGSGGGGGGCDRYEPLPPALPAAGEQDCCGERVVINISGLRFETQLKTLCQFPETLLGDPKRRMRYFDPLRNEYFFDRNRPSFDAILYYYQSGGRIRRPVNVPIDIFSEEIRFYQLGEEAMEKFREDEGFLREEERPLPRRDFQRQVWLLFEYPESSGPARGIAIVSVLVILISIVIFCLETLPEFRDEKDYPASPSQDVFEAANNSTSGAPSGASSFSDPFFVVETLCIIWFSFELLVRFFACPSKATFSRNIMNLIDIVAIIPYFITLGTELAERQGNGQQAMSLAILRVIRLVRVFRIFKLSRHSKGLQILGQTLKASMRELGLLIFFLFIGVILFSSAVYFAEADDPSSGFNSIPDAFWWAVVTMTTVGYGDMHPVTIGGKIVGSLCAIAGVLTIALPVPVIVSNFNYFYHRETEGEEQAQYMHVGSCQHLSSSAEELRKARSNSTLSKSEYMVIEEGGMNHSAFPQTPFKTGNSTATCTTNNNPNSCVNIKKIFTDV
Property Measured: pIC50
Friendly reminder that pIC50 comes from taking -log10 of the concentration in mol/L.

Prompt line: Look up and report pIC50, with Kv1.3 (mKv1.3) voltage-gated potassium channel (Mus musculus) as system, for `COc1cc(OC)c(CCC(=O)c2ccc(O)cc2)c(OC)c1`
Response line: 5.20
